- measurement target: Serine/threonine-protein kinase Nek3 (Homo sapiens);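 note: residual NEK3 kinase activity given as percent of control, assayed in 8 mM MOPS buffer pH 7.0 containing 0.2 mM EDTA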
- cond: at 1 µM
- Description: Millipore: Percentage of residual kinase activity of NEK3 at 1uM relative to control. Control inhibitor: Phosphoric acid* at 0.3uM. Buffer: 8 mM MOPS pH 7.0, 0.2 mM EDTA
endpoint name: residual activity

> print(dat)
                               smiles.record                        measurement.target  meas.value
 1  N#C/C(=C(\N)Sc1ccc(N)cc1)c1ccccc1C(F)(F)F  Serine/threonine-protein kinase Nek3 (Homo sapiens)         75%
 2  O=C1NC(=O)c2cc(Nc3ccc(F)cc3)c(Nc3ccc(F)cc3)cc21  Serine/threonine-protein kinase Nek3 (Homo sapiens)        109%
 3  O=Nc1c(-c2c(O)[nH]c3ccccc23)[nH]c2ccccc12  Serine/threonine-protein kinase Nek3 (Homo sapiens)         86%
 4  NC(=O)c1ccc2[nH]c(-c3ccc(Oc4ccc(Cl)cc4)cc3)nc2c1  Serine/threonine-protein kinase Nek3 (Homo sapiens)         75%
 5  COc1cc2ncnc(Nc3ccc(Oc4ccccc4)cc3)c2cc1OC  Serine/threonine-protein kinase Nek3 (Homo sapiens)        106%
 6   Nc1ccc2ncnc(NCCc3ccc(Oc4ccccc4)cc3)c2c1  Serine/threonine-protein kinase Nek3 (Homo sapiens)         81%
 7  Nc1n[nH]c2nnc(-c3c(-c4ccccc4)nn4ccccc34)cc12  Serine/threonine-protein kinase Nek3 (Homo sapiens)         83%
 8  O=C1NC(=O)c2c1c1c3ccccc3[nH]c1c1[nH]c3cc(Br)ccc3c21  Serine/threonine-protein kinase Nek3 (Homo sapiens)         85%
 9       Cn1cnc2cc3c(Nc4cccc(Br)c4)ncnc3cc21  Serine/threonine-protein kinase Nek3 (Homo sapiens)        111%
10      CN(C)c1ccc(/C=C2\C(=O)Nc3ccccc32)cc1  Serine/threonine-protein kinase Nek3 (Homo sapiens)        111%
11         COc1ccc(OC)c2c(=S)c3ccccc3[nH]c12  Serine/threonine-protein kinase Nek3 (Homo sapiens)         74%

====

Items are presented alongside their recorded residual activity.
- measurement target: Dual specificity mitogen-activated protein kinase kinase 7 (Homo sapiens)
- Sequence (whole entry): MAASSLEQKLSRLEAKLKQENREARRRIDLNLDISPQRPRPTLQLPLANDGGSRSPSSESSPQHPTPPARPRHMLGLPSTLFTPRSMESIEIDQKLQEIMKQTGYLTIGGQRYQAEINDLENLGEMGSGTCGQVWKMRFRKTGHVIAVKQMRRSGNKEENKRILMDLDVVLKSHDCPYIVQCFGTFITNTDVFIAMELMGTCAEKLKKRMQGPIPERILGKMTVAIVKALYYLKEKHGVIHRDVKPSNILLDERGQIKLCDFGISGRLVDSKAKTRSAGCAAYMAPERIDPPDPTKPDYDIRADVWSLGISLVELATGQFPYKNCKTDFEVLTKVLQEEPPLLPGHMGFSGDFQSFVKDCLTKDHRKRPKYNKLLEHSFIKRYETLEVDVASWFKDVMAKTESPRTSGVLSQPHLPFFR
- cond: at 10 µM
endpoint name: residual activity (%)

> print(dat)
                               smiles.record  meas.value
 1  O=C(Nc1cccc(Nc2nccc(Nc3cccc(C(F)(F)F)c3)n2)c1)C1CC1          87
 2  Oc1n[nH]c2nnc(-c3c(-c4ccccc4)nn4ccccc34)cc12         101
 3           Cc1nc2cc3nc(-c4cccs4)cnc3cc2n1C         110
 4          COc1cccc(-c2cc(=O)c3ccccc3o2)c1N          84
 5  O=c1cc(-c2cccc3c2Sc2ccccc2S3)oc(N2CCOCC2)c1          82
 6  CC#CC(=O)Nc1cc2c(Nc3ccc(F)c(Cl)c3)ncnc2cn1          90
 7  O=C1NC(=O)/C(=C/c2ccc3c(c2)OC(F)(F)O3)S1          99
 8  CC(=O)O/N=C1\C(=C2\C(=O)Nc3cc(Br)ccc32)Nc2ccccc21         105
 9  CC(C)n1cnc2/c(=N/c3cccc(Cl)c3)nc(NCCO)[nH]c21          93
10  Nc1cccc(-c2cc3c(Oc4cccc(O)c4)ncnc3[nH]2)c1          70
11  O=[N+]([O-])c1ccc(-c2nc(-c3ccc(F)cc3)c(-c3ccncc3)[nH]2)cc1          98
12           CNc1cc2c(Nc3cccc(Br)c3)ncnc2cn1          93
13  COc1cc2ncnc(Nc3ccc(NC(=O)c4ccccc4)cc3)c2cc1OC          74
14      CN(C)c1ccc(/C=C2\C(=O)Nc3ccccc32)cc1          84
15  Nc1n[nH]c2nnc(-c3c(-c4ccccc4)nn4ccccc34)cc12          70
16  Nc1nc(Nc2ccc(S(N)(=O)=O)cc2)nn1C(=S)Nc1c(F)cccc1F          16
17  Cn1cc(/C=C2\C(=O)Nc3ccc(S(N)(=O)=O)cc32)c2ccccc21          59
18   Cc1cc(Nc2nc(-c3ccccc3)nc3ccccc23)n[nH]1          58
19       CCOc1cc2ncnc(Nc3cccc(Br)c3)c2cc1OCC          72
20       Cc1ccc(NC2=CC(=O)c3sc(C)nc3C2=O)cc1         101
21  COc1ccc(C(=O)Nc2sc3c(c2C(N)=O)CCCC3)cc1OC          73
22  N#C/C(=C(\N)Sc1ccc(N)cc1)c1ccccc1C(F)(F)F          96
23   Nc1ccc2ncnc(NCCc3ccc(Oc4ccccc4)cc3)c2c1          96
24  O=C(Nc1cccc(Nc2cc(Nc3cccc(C(F)(F)F)c3)ncn2)c1)C1CC1         106
25  O=C(O)c1ccc2c3c1cccc3c(=O)n1c3ccccc3nc21          46
26          Cn1nc2c3c(cccc31)C(=O)c1ccccc1-2          53
